molecular target: c-Met (cytoplasmic domain) (Homo sapiens, UniProt P08581); construct: 10 ng/mL c-Met (cytoplasmic domain, Invitrogen Corporation #PV3143); purchased Invitrogen Corporation PV3143; assay: c-Met Kinase Assay (same methods as for ALK, with modifications); format: biochemical; conditions: c-Met kinase inhibition, 1 μM ATP (Km level); read-out: cMet Activity
Sequence (P08581 956-1390 limits assumed): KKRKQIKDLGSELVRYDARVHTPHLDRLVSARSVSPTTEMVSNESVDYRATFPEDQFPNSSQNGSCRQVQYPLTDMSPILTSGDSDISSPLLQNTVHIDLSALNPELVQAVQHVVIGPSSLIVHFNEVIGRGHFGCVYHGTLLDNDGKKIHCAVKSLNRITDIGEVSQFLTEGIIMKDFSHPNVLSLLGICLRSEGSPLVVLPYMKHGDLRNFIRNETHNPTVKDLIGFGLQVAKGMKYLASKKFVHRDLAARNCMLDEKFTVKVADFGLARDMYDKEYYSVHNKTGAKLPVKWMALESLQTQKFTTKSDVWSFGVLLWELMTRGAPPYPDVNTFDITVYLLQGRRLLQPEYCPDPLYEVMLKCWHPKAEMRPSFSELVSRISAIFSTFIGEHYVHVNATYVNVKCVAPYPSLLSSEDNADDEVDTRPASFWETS
measurement type: IC50

Task: Look up and report measured IC50 for this entry: `CCN1C(=O)CCCc2cc(Nc3ncc(Cl)c(Nc4c(F)cccc4C(=O)NC)n3)c(OC)cc21`
Output: 1000 to 10000 nM

Task: // fetch IC50 given entry `CCN1CCc2ccc(Nc3ncc(Cl)c(Nc4ccccc4S(=O)(=O)NC)n3)cc2CC1`
Output: < 100 nM

Task: Tell me IC50 reported for CNC(=O)c1ccccc1Nc1nc(Nc2ccc3c(c2)C2CCC3CN(CCOC)C2)ncc1Cl (stereo not shown)
Output: < 100 nM

Task: Specify IC50 for `COCCN1CCc2ccc(Nc3ncc(Cl)c(Nc4cc(Cl)ccc4OC)n3)cc2CC1` and stop.
Output: 100 to 1000 nM

Task: Look up and report measured IC50 for this entry: `COCCN1CCc2cc(Nc3ncc(Cl)c(Nc4ccc(N5CCOCC5)cc4OC)n3)c(OC)cc2CC1`
Output: > 10000 nM

Task: // Input: `COc1cc2c(cc1Nc1ncc(Cl)c(N[C@@H]3CCCC[C@H]3NS(C)(=O)=O)n1)CCN(C[C@H](O)C(F)(F)F)CC2` . Output its IC50 only.
Output: > 10000 nM

Task: Return the recorded IC50 value; entry: COc1cc2c(cc1Nc1ncc(Cl)c(NC3C4C=CC(C4)C3C(N)=O)n1)CCN(CC(=O)N(C)C)CC2 (stereo not shown)
Output: > 10000 nM

----------
molecular target: c-Met (cytoplasmic domain) (Homo sapiens, UniProt P08581); construct: 10 ng/mL c-Met (cytoplasmic domain, Invitrogen Corporation #PV3143); purchased Invitrogen Corporation PV3143; test: c-Met Kinase Assay (same methods as for ALK, with modifications); format: biochemical; conditions: c-Met kinase inhibition, 1 μM ATP (Km level); read-out: cMet Activity
measurement type: IC50

Task: Look up and state reported IC50 for `CNC(=O)c1cccc(C)c1Nc1nc(Nc2ccc3c(c2)N(CCOC)C(=O)CCC3)ncc1Cl`
Output: < 0.1 µM

Task: Give the value of IC50 reported for the following: CCN1C(=O)CCCc2cc(Nc3ncc(Cl)c(N[C@@H]4[C@H]5CC[C@H](C5)[C@@H]4C(N)=O)n3)c(OC)cc21 (relative stereo)
Output: > 10 µM

Task: Look up and report measured IC50 for this entry: `CCN1CCc2ccc(Nc3ncc(Cl)c(Nc4ccccc4-c4nccn4C)n3)cc2CC1`
Output: 0.1 to 1 µM

Task: Report measured IC50; entry is `COCCN1CCc2ccc(Nc3ncc(Cl)c(Nc4ccccc4-c4ncc[nH]4)n3)cc2CC1`
Output: 0.1 to 1 µM

Task: Assign IC50 to the following record: CCN1CC2OC(C1)c1cc(Nc3ncc(Cl)c(Nc4ccccc4C(=O)NC)n3)ccc12 (stereo not drawn)
Output: 0.1 to 1 µM

Task: Quick one: give measured IC50 for `CS(=O)(=O)N[C@@H]1CCCC[C@H]1Nc1nc(Nc2ccc3c(c2)CCC(F)(F)CC3)ncc1Cl`
Output: 1 to 10 µM

Task: Give a short answer stating reported IC50 for CNS(=O)(=O)c1ccccc1Nc1nc(Nc2ccc3c(c2)C2CCC3CN(CC#N)C2)ncc1Cl (stereo not drawn) .
Output: < 0.1 µM

Task: Annotate the molecule `COCCN1C(=O)CCCc2c1ccc(Nc1ncc(Cl)c(N[C@@H]3[C@H](C(N)=O)[C@H]4C=C[C@@H]3C4)n1)c2OC` with its measured IC50.
Output: > 10 µM

Task: Specify IC50 for CNC(=O)c1ccccc1Nc1nc(Nc2ccc3c(c2)C2CCC(C3)N2CCOC)ncc1Cl (stereo not drawn) and stop.
Output: < 0.1 µM

Task: Supply reported IC50 belonging to this molecule: `CNC(=O)c1ccccc1Nc1nc(Nc2ccc3c(c2)CCCNC3=O)ncc1Cl`
Output: < 0.1 µM

Task: Return value of IC50 for input `CCN1C(=O)CCCc2c1ccc(Nc1ncc(Cl)c(N[C@H]3[C@@H](C(N)=O)[C@@H]4C=C[C@H]3C4)n1)c2OC` , no commentary.
Output: > 10 µM

Task: Report IC50, nothing else, for this molecule: `COCCN1CCc2ccc(Nc3ncc(Cl)c(Nc4ccc(N5CCOCC5)cc4OC)n3)cc2CC1`
Output: 0.1 to 1 µM

Task: Answer with the recorded IC50 of `CNC(=O)c1ccccc1Nc1nc(Nc2cccc3c2CN(C(C)=O)CCN3)ncc1Cl` only.
Output: 1 to 10 µM

Task: Please indicate IC50 recorded for `CNC(=O)c1ccccc1Nc1nc(Nc2ccc(OC)c3c2N(C)C(=O)CCC3)ncc1Cl`
Output: > 10 µM

Task: Consider the molecule CNC(=O)c1cccc(Cl)c1Nc1nc(Nc2ccc3c(c2)C2CCC(C3)N2)ncc1Cl (stereo not drawn) . State its measured IC50.
Output: < 0.1 µM
